src = PubChem BioAssay

PROTOCOL TEXT: growth inhibition of DIPG glioma cells, dose response, cell-based, SU-DIPG-IV, MIPE4.0, CellTiter-Glo, qHTS (AID 1347063);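 also: compound exposure lasted 48 hours before the viability readout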
CONDITION INFO: SU-DIPG-IV viability, CellTiter-Glo ATP luminescence
Inconclusive results are not listed. Calls of active or inactive are those of the source. The limit is not given here; nearly all actives have AC50 up to about 30 µM.
In this exercise, the only acceptable responses are active, inactive

C[C@H]1COC2=C1C(=O)C(=O)c1c2ccc2c1CCCC2(C)C :: active
CCN(c1ccccc1)c1cc(NC)[n+](C)c(C)n1 :: inactive
COc1cc(OC)c(NC(=O)Nc2cc(C)on2)cc1Cl :: inactive
NC(=O)Nc1sc(-c2ccc(F)cc2)cc1C(N)=O :: active

Record request — test call for `CC[C@H](NC(C)C)[C@H](O)c1ccc(O)c2[nH]c(=O)ccc12`
inactive

For `N#CC(=C(/N)Sc1ccccc1N)/C(C#N)=C(\N)Sc1ccccc1N` , which call appears in the assay record?
active

Please indicate how the test categorized `C[C@@H](c1ncncc1F)[C@](O)(Cn1cncn1)c1ccc(F)cc1F` .
inactive

Per the records of this test, what outcome belongs to `O=C1NC(=O)C(c2ccccc2[N+](=O)[O-])=C1Nc1ccc(O)c(Cl)c1` ?
inactive

Assay outcome for `CCOC(=O)c1ccc(OC(=O)CCCCCN=C(N)N)cc1` : what was it?
inactive
